Test system: c-Abl (mouse)
Test: phosphorylation enrichment, bacterial display (enrichment ratio); higher = better substrate or ligand; peptides without Tyr show the background
As shown below, each of these sequences has a reported phosphorylation enrichment value.

>  <recordSequence>
IGLHAYGDQFR [IDH1_Y135_R132L_YF]

>  <targetOrSystem>
c-Abl (mouse)

>  <phosphorylation enrichment>
0.51

$$$$
>  <recordSequence>
RKLVDYDSAQH [BIN1_Y150_R154Q]

>  <targetOrSystem>
c-Abl (mouse)

>  <phosphorylation enrichment>
0.871

$$$$
>  <recordSequence>
ASIVDYNIIGW [MYH7_Y588_G584S]

>  <targetOrSystem>
c-Abl (mouse)

>  <phosphorylation enrichment>
0.92

$$$$
>  <recordSequence>
RMGNLYDIDEN [GRIN2A_Y1246_D1251N]

>  <targetOrSystem>
c-Abl (mouse)

>  <phosphorylation enrichment>
2.11

$$$$
>  <recordSequence>
RRIHSYRGHVW [VHL_Y112_L116V]

>  <targetOrSystem>
c-Abl (mouse)

>  <phosphorylation enrichment>
0.848

$$$$
>  <recordSequence>
PTKNDYWAMPA [WWOX_Y287_L291P]

>  <targetOrSystem>
c-Abl (mouse)

>  <phosphorylation enrichment>
1.39

$$$$
>  <recordSequence>
MIHSAYALGGL [CPS1_Y590_R587H]

>  <targetOrSystem>
c-Abl (mouse)

>  <phosphorylation enrichment>
0.373

$$$$
>  <recordSequence>
KLSFSYGWALQ [ALDOB_Y302_R304W]

>  <targetOrSystem>
c-Abl (mouse)

>  <phosphorylation enrichment>
1.19

$$$$
>  <recordSequence>
RLSPEYKQNEI [GJB1_Y243]

>  <targetOrSystem>
c-Abl (mouse)

>  <phosphorylation enrichment>
0.821

$$$$
>  <recordSequence>
KPGVNYFFRVS

>  <targetOrSystem>
c-Abl (mouse)

>  <phosphorylation enrichment>
0.73

$$$$
>  <recordSequence>
EGWQVYRLGTR [MISP_Y95_A99T]

>  <targetOrSystem>
c-Abl (mouse)

>  <phosphorylation enrichment>
0.525

$$$$
>  <recordSequence>
LWEGSYGKVKE [STK11_Y60_G56W]

>  <targetOrSystem>
c-Abl (mouse)

>  <phosphorylation enrichment>
0.69

$$$$
>  <recordSequence>
KLADMYGGGKD [CDH1_Y876_E880K]

>  <targetOrSystem>
c-Abl (mouse)

>  <phosphorylation enrichment>
0.528

$$$$
>  <recordSequence>
KELAKYYKLHH [AK7_Y390_N389K]

>  <targetOrSystem>
c-Abl (mouse)

>  <phosphorylation enrichment>
0.46

$$$$
>  <recordSequence>
EEHIPYTHMNG [INSR_Y1361]

>  <targetOrSystem>
c-Abl (mouse)

>  <phosphorylation enrichment>
0.555

$$$$
>  <recordSequence>
KKRSVYIKVLF [CC2D2A_Y683_L684I]

>  <targetOrSystem>
c-Abl (mouse)

>  <phosphorylation enrichment>
0.644

$$$$
>  <recordSequence>
NTGDDYDLYGG [PTPN11_Y63_Y62D]

>  <targetOrSystem>
c-Abl (mouse)

>  <phosphorylation enrichment>
0.684

$$$$
>  <recordSequence>
KLQQWYREPRS [GPI_Y17_H20P]

>  <targetOrSystem>
c-Abl (mouse)

>  <phosphorylation enrichment>
0.615

$$$$
>  <recordSequence>
CTTIHHNYMCN [TP53_Y234_Y234H]

>  <targetOrSystem>
c-Abl (mouse)

>  <phosphorylation enrichment>
0.525

$$$$
>  <recordSequence>
NTADFYDLFGG [PTPN11_Y63_G60A_YF]

>  <targetOrSystem>
c-Abl (mouse)

>  <phosphorylation enrichment>
0.8

$$$$
>  <recordSequence>
IITDYYVDMKF [MPP4_Y567_V562I]

>  <targetOrSystem>
c-Abl (mouse)

>  <phosphorylation enrichment>
0.856

$$$$
>  <recordSequence>
SLESAYPEGSQ [TTF1_Y357]

>  <targetOrSystem>
c-Abl (mouse)

>  <phosphorylation enrichment>
0.601

$$$$
>  <recordSequence>
VRSNHYDPEED [TJP1_Y1346]

>  <targetOrSystem>
c-Abl (mouse)

>  <phosphorylation enrichment>
0.688

$$$$
>  <recordSequence>
TQKLAYVELQQ [CENPF_Y700_M701V]

>  <targetOrSystem>
c-Abl (mouse)

>  <phosphorylation enrichment>
1.03

$$$$
>  <recordSequence>
DKANRYFSPNF [PTEN_Y336]

>  <targetOrSystem>
c-Abl (mouse)

>  <phosphorylation enrichment>
0.438

$$$$
>  <recordSequence>
RLTEGYTGPFK [ZNF862_Y181_I178T]

>  <targetOrSystem>
c-Abl (mouse)

>  <phosphorylation enrichment>
0.426

$$$$
>  <recordSequence>
TLKDVYDDGKY [RPS6KA3_Y483]

>  <targetOrSystem>
c-Abl (mouse)

>  <phosphorylation enrichment>
0.758

$$$$
>  <recordSequence>
CTTIHYNYTCN [TP53_Y234_M237T]

>  <targetOrSystem>
c-Abl (mouse)

>  <phosphorylation enrichment>
0.585

$$$$
>  <recordSequence>
AAGGRYDGLLG [HARS2_Y364_V368L]

>  <targetOrSystem>
c-Abl (mouse)

>  <phosphorylation enrichment>
1.01

$$$$
>  <recordSequence>
FGAHNYHPLPV [OAT_Y55_YF]

>  <targetOrSystem>
c-Abl (mouse)

>  <phosphorylation enrichment>
0.562

$$$$
>  <recordSequence>
REGAKYVSHGA [ASS1_Y113]

>  <targetOrSystem>
c-Abl (mouse)

>  <phosphorylation enrichment>
0.339

$$$$
>  <recordSequence>
ECKFLYSRKEG [PTPN11_Y263_L261F]

>  <targetOrSystem>
c-Abl (mouse)

>  <phosphorylation enrichment>
0.639

$$$$
>  <recordSequence>
KEDPEYKKKFR [FAM161A_Y278_E273K]

>  <targetOrSystem>
c-Abl (mouse)

>  <phosphorylation enrichment>
0.824

$$$$
>  <recordSequence>
FGCTFYNQAIM [MCCC2_Y196_R193C]

>  <targetOrSystem>
c-Abl (mouse)

>  <phosphorylation enrichment>
0.968

$$$$
>  <recordSequence>
GHLFACDWISI [BEST1_Y227_Y227C_YF]

>  <targetOrSystem>
c-Abl (mouse)

>  <phosphorylation enrichment>
0.531

$$$$
>  <recordSequence>
CTTIHYNFMHN [TP53_Y234_C238H_YF]

>  <targetOrSystem>
c-Abl (mouse)

>  <phosphorylation enrichment>
0.765

$$$$
>  <recordSequence>
DLLMQHPKAQG [FAM83C_Y600_Y600H]

>  <targetOrSystem>
c-Abl (mouse)

>  <phosphorylation enrichment>
1.46

$$$$
>  <recordSequence>
EKGEEYGGGGG [TUBA1A_Y451_E447K]

>  <targetOrSystem>
c-Abl (mouse)

>  <phosphorylation enrichment>
0.384

$$$$
>  <recordSequence>
LSDGPYSNPYE [EPOR_Y485]

>  <targetOrSystem>
c-Abl (mouse)

>  <phosphorylation enrichment>
3.22

$$$$
>  <recordSequence>
MKGDFYCFLAE [YWHAG_Y131_R132C_YF]

>  <targetOrSystem>
c-Abl (mouse)

>  <phosphorylation enrichment>
0.971

$$$$
>  <recordSequence>
FPKDVYVDSKD [NDUFAF4_Y69_L65P]

>  <targetOrSystem>
c-Abl (mouse)

>  <phosphorylation enrichment>
0.543

$$$$
>  <recordSequence>
EKPAKYDDIKK [GAPDH_Y255]

>  <targetOrSystem>
c-Abl (mouse)

>  <phosphorylation enrichment>
0.632

$$$$
>  <recordSequence>
SSTAMYSAAGR [PSMB1_Y8_P11A]

>  <targetOrSystem>
c-Abl (mouse)

>  <phosphorylation enrichment>
0.444

$$$$
>  <recordSequence>
ITLPIYTKESE [ANK2_Y1455]

>  <targetOrSystem>
c-Abl (mouse);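 note: frequency after pTyr selection over input frequency; kinase dosed for 20-30% of maximal phosphorylation in three min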

>  <phosphorylation enrichment>
0.848

$$$$
>  <recordSequence>
SHSMRYFDTAV [HLA-C_Y31]

>  <targetOrSystem>
c-Abl (mouse);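 note: frequency after pTyr selection over input frequency; kinase dosed for 20-30% of maximal phosphorylation in three min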

>  <phosphorylation enrichment>
0.436

$$$$
>  <recordSequence>
SVVVPYEPPED [TP53_Y220_V225D]

>  <targetOrSystem>
c-Abl (mouse);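 note: frequency after pTyr selection over input frequency; kinase dosed for 20-30% of maximal phosphorylation in three min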

>  <phosphorylation enrichment>
0.772

$$$$
>  <recordSequence>
GSERDYTFDEL [EIF2S2_Y174_E177D_YF]

>  <targetOrSystem>
c-Abl (mouse);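 note: 11-residue human phosphosite peptides and single-mutation variants displayed on the E. coli surface, counted by deep sequencing, each peptide's frequency after selection divided by its frequency in the unselected input library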;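 note: frequency after pTyr selection over input frequency; kinase dosed for 20-30% of maximal phosphorylation in three min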

>  <phosphorylation enrichment>
0.837

$$$$

Hello, the source for this data is the supplement of paper PMC10065799, in case you need it.
